target: Fes (UniProt P07332); assay: phosphorylation enrichment, bacterial display (enrichment ratio); higher = better substrate or ligand; peptides without Tyr show the background
Sequence (P07332 whole entry, looked up): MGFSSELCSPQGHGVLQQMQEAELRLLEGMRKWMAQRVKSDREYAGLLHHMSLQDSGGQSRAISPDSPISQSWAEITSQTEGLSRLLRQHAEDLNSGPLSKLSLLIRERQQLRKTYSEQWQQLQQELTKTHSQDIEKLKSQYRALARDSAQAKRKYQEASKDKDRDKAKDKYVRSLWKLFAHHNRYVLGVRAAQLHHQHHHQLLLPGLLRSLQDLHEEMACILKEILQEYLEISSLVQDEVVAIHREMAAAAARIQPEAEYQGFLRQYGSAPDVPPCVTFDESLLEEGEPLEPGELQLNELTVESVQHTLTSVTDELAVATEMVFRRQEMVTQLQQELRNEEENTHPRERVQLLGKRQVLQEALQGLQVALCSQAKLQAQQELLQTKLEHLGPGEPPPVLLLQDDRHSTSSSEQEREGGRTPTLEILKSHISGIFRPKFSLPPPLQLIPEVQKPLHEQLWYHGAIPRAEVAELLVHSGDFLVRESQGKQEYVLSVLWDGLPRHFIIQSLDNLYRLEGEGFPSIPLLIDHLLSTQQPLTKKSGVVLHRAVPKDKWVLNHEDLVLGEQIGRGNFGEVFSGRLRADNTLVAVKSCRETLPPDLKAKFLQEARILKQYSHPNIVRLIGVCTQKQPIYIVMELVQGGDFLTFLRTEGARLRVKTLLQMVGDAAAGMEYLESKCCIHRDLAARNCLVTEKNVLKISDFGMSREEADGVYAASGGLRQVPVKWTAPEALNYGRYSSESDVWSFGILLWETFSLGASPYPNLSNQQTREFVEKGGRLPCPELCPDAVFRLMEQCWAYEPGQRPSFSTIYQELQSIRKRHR
Output MET for phosphorylation enrichment not less than 1; output NOT MET otherwise.

Asked: Please indicate if the recorded phosphorylation enrichment for NPQKSYFICLF [WAS_Y83_R86C_YF] meets or exceeds 1.
Given back: MET

Asked: Please indicate if the recorded phosphorylation enrichment for QDDTVYMGKVI [DCTN1_Y1244_T1249I] meets or exceeds 1.
Given back: MET

Asked: Please indicate if the recorded phosphorylation enrichment for CFTRKYTLPPG [HSPB1_Y142] meets or exceeds 1.
Given back: MET

Asked: Please indicate if the recorded phosphorylation enrichment for `TENAGYYFQVS` meets or exceeds 1.
Given back: MET

Asked: Please indicate if the recorded phosphorylation enrichment for KMTGRYEMYAR [UPB1_Y362] meets or exceeds 1.
Given back: NOT MET

Asked: Please indicate if the recorded phosphorylation enrichment for SRIWVYNHFRC [BRCA2_Y2621_W2626C_YF] meets or exceeds 1.
Given back: MET

Asked: Please indicate if the recorded phosphorylation enrichment for NHYKIHNLCAE [PTEN_Y68_Y68H] meets or exceeds 1.
Given back: NOT MET

----------
Answer each item with its documented phosphorylation enrichment.
molecular target: FGFR3 (UniProt P22607); test: phosphorylation enrichment, bacterial display (enrichment ratio); higher = better substrate or ligand; peptides without Tyr show the background
Sequence (P22607 whole entry, looked up): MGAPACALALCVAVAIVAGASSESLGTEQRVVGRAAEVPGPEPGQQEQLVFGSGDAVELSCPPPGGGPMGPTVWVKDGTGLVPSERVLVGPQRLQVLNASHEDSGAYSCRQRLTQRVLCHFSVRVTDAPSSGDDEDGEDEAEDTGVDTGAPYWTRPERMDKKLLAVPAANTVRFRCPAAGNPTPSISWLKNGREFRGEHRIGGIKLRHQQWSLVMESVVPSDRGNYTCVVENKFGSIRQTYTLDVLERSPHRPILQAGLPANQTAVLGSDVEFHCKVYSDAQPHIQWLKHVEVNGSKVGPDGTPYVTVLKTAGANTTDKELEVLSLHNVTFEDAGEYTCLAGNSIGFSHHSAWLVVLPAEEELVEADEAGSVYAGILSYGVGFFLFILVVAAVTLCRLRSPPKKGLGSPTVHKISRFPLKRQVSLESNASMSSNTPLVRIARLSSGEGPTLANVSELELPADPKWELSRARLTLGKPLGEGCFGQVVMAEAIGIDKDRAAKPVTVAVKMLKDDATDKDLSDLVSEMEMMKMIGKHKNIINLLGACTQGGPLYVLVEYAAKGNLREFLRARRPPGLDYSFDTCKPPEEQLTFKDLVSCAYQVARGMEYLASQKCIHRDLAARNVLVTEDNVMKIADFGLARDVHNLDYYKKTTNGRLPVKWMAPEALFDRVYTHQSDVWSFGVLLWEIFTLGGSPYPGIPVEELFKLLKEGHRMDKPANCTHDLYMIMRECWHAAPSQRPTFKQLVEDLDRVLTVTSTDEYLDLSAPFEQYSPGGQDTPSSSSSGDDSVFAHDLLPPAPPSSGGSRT
Answer with a number only.

Recorded phosphorylation enrichment (sequence KEKLCYVAPDF [ACTA1_Y220_L223P] ): 0.603

Recorded phosphorylation enrichment (sequence TGEDWYVLVRV [SF3B3_Y904_G908R] ): 0.827

Recorded phosphorylation enrichment (sequence IDSTPYRQWYE [RPS8_Y109] ): 0.753

Recorded phosphorylation enrichment (sequence WASQRYGRELR [BAD_Y110_A107S] ): 0.414

Recorded phosphorylation enrichment (sequence RRNTFYASIAK [ACADM_Y353_YF] ): 0.583

Recorded phosphorylation enrichment (sequence VTVLDYEKIGK [SYT1_Y365_D366E] ): 0.561

Recorded phosphorylation enrichment (sequence PSNTDYPGPHS [TP63_Y171] ): 0.722

Recorded phosphorylation enrichment (sequence SETSRYLSELF [KCNJ3_Y67_D70E] ): 0.537

Recorded phosphorylation enrichment (sequence EAGKVYLKAPM [CBFB_Y96] ): 0.609

Recorded phosphorylation enrichment (sequence FYVVRYCWLRR [MPZ_Y181] ): 0.614

Recorded phosphorylation enrichment (sequence EEQKKYFNAMK [SCN5A_Y1494_YF] ): 0.656

Recorded phosphorylation enrichment (sequence TRSCKYLLLSM [NF1_Y491_Y489C] ): 0.552

Recorded phosphorylation enrichment (sequence SVSVNYGDLVQ [GRAP_Y101_Q104L] ): 0.633

Recorded phosphorylation enrichment (sequence RRERPYGGGGG [FUS_Y526] ): 0.523

----------
biological target: FGFR3 (UniProt P22607); experiment: phosphorylation enrichment, bacterial display (enrichment ratio); higher = better substrate or ligand; peptides without Tyr show the background
Answer each item with its documented phosphorylation enrichment.
Answer with a number only.

Record PLDGEYFTHQI [TP53_Y327_L330H] ; system FGFR3 (UniProt P22607); phosphorylation enrichment = 1.55

Record `LANNEYYFRVC` ; system FGFR3 (UniProt P22607); phosphorylation enrichment = 3.11

Record SFTDPYAQPPL [KMT2D_Y2378_YF] ; system FGFR3 (UniProt P22607); phosphorylation enrichment = 0.607

Record HLVSEYQQYQD [TUBB3_Y422_D417H] ; system FGFR3 (UniProt P22607); phosphorylation enrichment = 1.05

Record SLFNGYVFSGM [NEIL3_Y71_V76M_YF] ; system FGFR3 (UniProt P22607); phosphorylation enrichment = 0.629

Record ATGMEYLASQK [FGFR2_Y616_R612T] ; system FGFR3 (UniProt P22607); phosphorylation enrichment = 0.833

Record PYSEPYADYGG [APBA1_Y187] ; system FGFR3 (UniProt P22607); phosphorylation enrichment = 2.23

Record KEGSAYGSQSV [NFKB2_Y868_D865G] ; system FGFR3 (UniProt P22607); phosphorylation enrichment = 0.498

Record EKSREYHRLFE [PIK3R1_Y463_D464H_YF] ; system FGFR3 (UniProt P22607); phosphorylation enrichment = 0.538

Record IEPCIYIPEDD [XPNPEP3_Y455_G453C] ; system FGFR3 (UniProt P22607); phosphorylation enrichment = 0.87

Record RFMVGYEMLAQ [GALT_Y339_K334R] ; system FGFR3 (UniProt P22607); phosphorylation enrichment = 0.873

Record IGRHAYGDQYR [IDH1_Y135] ; system FGFR3 (UniProt P22607); phosphorylation enrichment = 0.447

Record FAREGYSALPQ [SARS2_Y52_YF] ; system FGFR3 (UniProt P22607); phosphorylation enrichment = 0.446

Record YHIDHYLGKEM [G6PD_Y202_R198H] ; system FGFR3 (UniProt P22607); phosphorylation enrichment = 0.667

----------
biological target: SHP2-C SH2; assay: SH2 binding enrichment of the phosphorylated peptide, bacterial display (enrichment ratio); higher = better substrate or ligand; peptides without Tyr show the background;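 note: peptide library displayed on the E. coli surface as eCPX fusions, selected cells deep-sequenced, score is each peptide's frequency after selection divided by its frequency in the input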
Output label 1 for SH2 binding enrichment not less than 0.8; output label 0 otherwise.

Asked: Please indicate if the recorded SH2 binding enrichment for KVWGIYDCQQP [CYP3A7_Y75] meets or exceeds 0.8.
Given back: label 0

Asked: Please indicate if the recorded SH2 binding enrichment for SFPSTYRYERG [INPPL1_Y661_P659S] meets or exceeds 0.8.
Given back: label 0

Asked: Please indicate if the recorded SH2 binding enrichment for VTGWGYRKLRD [F11_Y521] meets or exceeds 0.8.
Given back: label 0

Asked: Please indicate if the recorded SH2 binding enrichment for KTVQDYLKKFY [MMP8_Y36_E38K] meets or exceeds 0.8.
Given back: label 0

Asked: Please indicate if the recorded SH2 binding enrichment for LGGSPYPSVPV [FGFR1_Y701_G703S] meets or exceeds 0.8.
Given back: label 0

Asked: Please indicate if the recorded SH2 binding enrichment for KLYRVYCDMNT [FGB_Y269_P265L] meets or exceeds 0.8.
Given back: label 0

Asked: Please indicate if the recorded SH2 binding enrichment for SLKEFYGEDAK [ALDH3A1_Y272] meets or exceeds 0.8.
Given back: label 0

Asked: Please indicate if the recorded SH2 binding enrichment for SLFNGYVFSGM [NEIL3_Y71_V76M_YF] meets or exceeds 0.8.
Given back: label 1

Asked: Please indicate if the recorded SH2 binding enrichment for PVDVAYRRGFF [PLEC_Y2967_YF] meets or exceeds 0.8.
Given back: label 0

Asked: Please indicate if the recorded SH2 binding enrichment for KVPCHYDDPGK [FOXG1_Y246_R244C] meets or exceeds 0.8.
Given back: label 1

Asked: Please indicate if the recorded SH2 binding enrichment for RHLLRYLSWTV [CLCNKB_Y93_S88R] meets or exceeds 0.8.
Given back: label 1

Asked: Please indicate if the recorded SH2 binding enrichment for RRERPYGGGGG [FUS_Y526] meets or exceeds 0.8.
Given back: label 0

Asked: Please indicate if the recorded SH2 binding enrichment for QADVTYVNTQL [MERTK_Y872_I871T] meets or exceeds 0.8.
Given back: label 1

Asked: Please indicate if the recorded SH2 binding enrichment for GTATTYLCGVK [ALPL_Y117_A116T] meets or exceeds 0.8.
Given back: label 1

Asked: Please indicate if the recorded SH2 binding enrichment for KAESWYQTKFE [KRT75_Y342_E337K_YF] meets or exceeds 0.8.
Given back: label 0

Asked: Please indicate if the recorded SH2 binding enrichment for ALAPKYHGGGG [HBB_Y146_H144P] meets or exceeds 0.8.
Given back: label 0

Asked: Please indicate if the recorded SH2 binding enrichment for AVAFVYYKSIG [ADGRL4_Y301] meets or exceeds 0.8.
Given back: label 0

Asked: Please indicate if the recorded SH2 binding enrichment for PELINYHQHNF [BTK_Y361_S366F] meets or exceeds 0.8.
Given back: label 0

Asked: Please indicate if the recorded SH2 binding enrichment for HLVSEYQQYQD [TUBB3_Y422_D417H] meets or exceeds 0.8.
Given back: label 0

Asked: Please indicate if the recorded SH2 binding enrichment for CERLPYDANKW [FLT1_Y815_S818N] meets or exceeds 0.8.
Given back: label 0

Asked: Please indicate if the recorded SH2 binding enrichment for CSPLLYRVIMS [OR8D4_Y132] meets or exceeds 0.8.
Given back: label 0

Asked: Please indicate if the recorded SH2 binding enrichment for RKLASYQSCLL [DHX37_Y1080_R1081Q] meets or exceeds 0.8.
Given back: label 0

Asked: Please indicate if the recorded SH2 binding enrichment for SLDLSYYHTSS [EMD_Y181_P183H] meets or exceeds 0.8.
Given back: label 0

Asked: Please indicate if the recorded SH2 binding enrichment for LRSELYSLIAR [PHIP_Y16_F17S] meets or exceeds 0.8.
Given back: label 1

Asked: Please indicate if the recorded SH2 binding enrichment for PGQRVYVVAER [SHH_Y316] meets or exceeds 0.8.
Given back: label 0

Asked: Please indicate if the recorded SH2 binding enrichment for ERLWDCGMSSS [F8_Y1728_Y1728C] meets or exceeds 0.8.
Given back: label 1

Asked: Please indicate if the recorded SH2 binding enrichment for ILCTVYAFKMR [GRM3_Y754_T758M] meets or exceeds 0.8.
Given back: label 1

Asked: Please indicate if the recorded SH2 binding enrichment for LIDGYYRLTED [JAK2_Y373_A377E] meets or exceeds 0.8.
Given back: label 1

Asked: Please indicate if the recorded SH2 binding enrichment for GGFTCCCDGKK [PROS1_Y266_Y266C_YF] meets or exceeds 0.8.
Given back: label 0

Asked: Please indicate if the recorded SH2 binding enrichment for VSTAVYKRFPS [BEST1_Y148] meets or exceeds 0.8.
Given back: label 0

Asked: Please indicate if the recorded SH2 binding enrichment for ADARMYGVLLW [PLP1_Y207_P211L] meets or exceeds 0.8.
Given back: label 0

Asked: Please indicate if the recorded SH2 binding enrichment for NDQANYLLNTD [ADA_Y290_S291L] meets or exceeds 0.8.
Given back: label 1

Asked: Please indicate if the recorded SH2 binding enrichment for RRNTFYASIAK [ACADM_Y353_YF] meets or exceeds 0.8.
Given back: label 1

Asked: Please indicate if the recorded SH2 binding enrichment for KWHREYNSKFV [RICTOR_Y835_YF] meets or exceeds 0.8.
Given back: label 1

Asked: Please indicate if the recorded SH2 binding enrichment for IEDPFYGNDSD [ACP1_Y133_YF] meets or exceeds 0.8.
Given back: label 1

Asked: Please indicate if the recorded SH2 binding enrichment for AFSLKYDQQTQ [SYTL4_Y366_E367D] meets or exceeds 0.8.
Given back: label 0

Asked: Please indicate if the recorded SH2 binding enrichment for `TENAGYYFQVS` meets or exceeds 0.8.
Given back: label 1

Asked: Please indicate if the recorded SH2 binding enrichment for PYRFIYMAVQH [PTPN11_Y515_Q510P] meets or exceeds 0.8.
Given back: label 1

Asked: Please indicate if the recorded SH2 binding enrichment for VIEFSYTSADG [DHCR7_Y382_C380Y_YF] meets or exceeds 0.8.
Given back: label 1

Asked: Please indicate if the recorded SH2 binding enrichment for VDESLYKTHPQ [HK1_Y417_G414E] meets or exceeds 0.8.
Given back: label 0

Asked: Please indicate if the recorded SH2 binding enrichment for ETKAFYPEEIS [HSPA1A_Y115] meets or exceeds 0.8.
Given back: label 0

Asked: Please indicate if the recorded SH2 binding enrichment for NELTYYCCKKD [CD59_Y87] meets or exceeds 0.8.
Given back: label 0

Asked: Please indicate if the recorded SH2 binding enrichment for IFQASYFRRGD [LTK_Y676_R673Q_YF] meets or exceeds 0.8.
Given back: label 0

Asked: Please indicate if the recorded SH2 binding enrichment for DVFRQYASLRG [GANAB_Y379_T383R] meets or exceeds 0.8.
Given back: label 1

Asked: Please indicate if the recorded SH2 binding enrichment for SHLLRYLSWTV [CLCNKB_Y93] meets or exceeds 0.8.
Given back: label 0

Asked: Please indicate if the recorded SH2 binding enrichment for ASMAKYYASEI [ACADSB_Y372] meets or exceeds 0.8.
Given back: label 0

Asked: Please indicate if the recorded SH2 binding enrichment for VDSAHYQLLET [DTX3L_Y385_K386Q] meets or exceeds 0.8.
Given back: label 0

Asked: Please indicate if the recorded SH2 binding enrichment for LFSNAYLNDLA [ALDH1A1_Y119_YF] meets or exceeds 0.8.
Given back: label 0

Asked: Please indicate if the recorded SH2 binding enrichment for LFSGDYFRIQG [DDR2_Y740_YF] meets or exceeds 0.8.
Given back: label 0

Asked: Please indicate if the recorded SH2 binding enrichment for KEGSAYGSQSV [NFKB2_Y868_D865G] meets or exceeds 0.8.
Given back: label 0

Asked: Please indicate if the recorded SH2 binding enrichment for CEDGTYSPEIS [PTDSS1_Y424] meets or exceeds 0.8.
Given back: label 1

Asked: Please indicate if the recorded SH2 binding enrichment for MSLRSYGSWEG [APC_Y96_R99W] meets or exceeds 0.8.
Given back: label 0
